molecular target: full-length beta-Catenin (Uniprot ID P35222) (Homo sapiens, UniProt P35222); construct: 10 nM full-length beta-Catenin (Uniprot ID P35222); assay: Fluorescence polarization IC50 (beta-catenin / 5FAM-TCF4 10-53 competition); format: binding; conditions: fluorescence polarization; read-out: beta-Catenin FP IC50
Sequence (P35222 whole entry): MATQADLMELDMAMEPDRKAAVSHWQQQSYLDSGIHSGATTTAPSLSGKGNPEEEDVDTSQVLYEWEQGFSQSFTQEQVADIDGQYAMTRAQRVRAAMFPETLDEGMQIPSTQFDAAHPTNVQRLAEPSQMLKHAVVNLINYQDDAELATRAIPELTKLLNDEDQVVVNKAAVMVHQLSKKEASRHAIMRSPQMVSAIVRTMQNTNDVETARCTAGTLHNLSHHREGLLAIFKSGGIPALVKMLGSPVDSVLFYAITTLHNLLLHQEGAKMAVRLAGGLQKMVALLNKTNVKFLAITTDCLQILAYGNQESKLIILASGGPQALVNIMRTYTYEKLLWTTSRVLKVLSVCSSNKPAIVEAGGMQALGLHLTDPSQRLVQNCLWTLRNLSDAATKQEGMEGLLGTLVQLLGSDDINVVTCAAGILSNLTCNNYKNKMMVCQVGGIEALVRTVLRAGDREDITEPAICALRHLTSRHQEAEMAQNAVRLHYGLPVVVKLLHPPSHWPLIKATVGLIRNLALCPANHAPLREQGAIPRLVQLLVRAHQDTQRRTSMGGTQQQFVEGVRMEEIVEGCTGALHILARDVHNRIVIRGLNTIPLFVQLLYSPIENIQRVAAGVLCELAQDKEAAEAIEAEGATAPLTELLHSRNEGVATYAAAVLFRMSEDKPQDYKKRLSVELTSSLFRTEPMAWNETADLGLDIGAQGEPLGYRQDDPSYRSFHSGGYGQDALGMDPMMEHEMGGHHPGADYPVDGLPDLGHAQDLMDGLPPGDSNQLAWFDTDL
pIC50: −log10 of the molar value.

[
  {
    "molecule": "CC(=O)N1CCC[C@]12CC=CCCCC1(CCCC=CCCCOC(=O)N3CC[C@@](C(=O)N[C@@H](Cc4ccccc4)C(=O)N[C@@H](Cc4csc5ccccc45)C(=O)N[C@@H](CCC(N)=O)C(N)=O)(C3)NC(=O)[C@H](CC(C)C)NC(=O)[C@H](Cc3ccccc3)NC(=O)[C@H](C)NC(=O)[C@H](CCCCNC(C)C)NC(=O)[C@H](CCC(N)=O)NC(=O)[C@H](CC(=O)O)NC1=O)NC(=O)[C@H](C)NC(=O)[C@H](CC(N)=O)NC2=O (stereo partly drawn) [I-1385]",
    "pIC50": 5.97
  },
  {
    "molecule": "CNC(=O)C[C@H](NC(=O)[C@H](Cc1csc2ccccc12)NC(=O)[C@H](Cc1ccsc1)NC(=O)[C@]12CCN(C1)C(=O)OCCCC=CCCCC1(CCCC=CC[C@]3(CCCN3C(C)=O)C(=O)N[C@@H](CC(=O)O)C(=O)N[C@@H](CC(C)(C)C)C(=O)N1)C(=O)N[C@@H](CC(N)=O)C(=O)N[C@@H]([C@@H](C)O)C(=O)NC(C)(C)C(=O)N[C@@H](C)C(=O)N[C@@H](Cc1ccccc1)C(=O)N[C@@H](CC(N)=O)C(=O)N2)C(N)=O (stereo partly drawn) [I-2495]",
    "pIC50": 7.02
  },
  {
    "molecule": "CC(=O)N1CCC[C@]12CC=CCCCC[C@@](C)(C(=O)N[C@@H](CC(=O)O)C(=O)N[C@@H](CC(=O)O)C(=O)N[C@@H](C)C(=O)N[C@@H](C)C(=O)N[C@@H](Cc1ccccc1)C(=O)N[C@@H](CC(C)C)C(=O)NC(C)(C)C(=O)N[C@@H](Cc1ccsc1)C(=O)N[C@@H](Cc1csc3ccccc13)C(=O)N[C@@H](CCC(N)=O)C(N)=O)NC(=O)[C@H](CC(C)(C)C)NC(=O)[C@H](CC(=O)O)NC2=O [I-1978]",
    "pIC50": 6.84
  }
]

###

target: full-length beta-Catenin (Uniprot ID P35222) (Homo sapiens, UniProt P35222); construct: 10 nM full-length beta-Catenin (Uniprot ID P35222); experiment: Fluorescence polarization IC50 (beta-catenin / 5FAM-TCF4 10-53 competition); format: binding; conditions: Table E2-1; read-out: beta-Catenin FP IC50
pIC50: −log10 of the molar value.

[
  {
    "molecule": "CC(=O)N1CCC[C@]12CC=CCCCC1(CCCC=CCCCCCC[C@@](C)(C(=O)N[C@@H](Cc3ccccc3)C(=O)N[C@@H](Cc3c[nH]c4ccccc34)C(=O)NC(C)(C)C(N)=O)NC(=O)[C@H](C(C)C)NC(=O)[C@H](Cc3ccccc3)NC(=O)[C@H](C)NC(=O)[C@H](C)NC(=O)[C@H](CCC(=O)O)NC(=O)[C@H](CC(=O)O)NC1=O)NC(=O)[C@H](C)NC(=O)[C@H](CC(=O)O)NC2=O (some centres unmarked)",
    "pIC50": 5.57
  },
  {
    "molecule": "CC(=O)N1CCC[C@]12CC=CCCCC1(CCCC=CCCCCCC[C@@](C)(C(=O)N[C@@H](Cc3ccccc3)C(=O)N[C@@H](Cc3c[nH]c4ccccc34)C(=O)N[C@@H](CCC(N)=O)C(N)=O)NC(=O)[C@H](C(C)C)NC(=O)[C@H](Cc3ccc(Cl)cc3)NC(=O)[C@H](C)NC(=O)[C@H](C)NC(=O)[C@H](CC(=O)O)NC(=O)[C@H](CC(=O)O)NC1=O)NC(=O)[C@H](C)NC(=O)[C@H](CC(=O)O)NC2=O (some centres unmarked)",
    "pIC50": 5.51
  }
]
